Biological target: T1, human CX3CR1 (human, UniProt P49238 1-355)
T1 sequence: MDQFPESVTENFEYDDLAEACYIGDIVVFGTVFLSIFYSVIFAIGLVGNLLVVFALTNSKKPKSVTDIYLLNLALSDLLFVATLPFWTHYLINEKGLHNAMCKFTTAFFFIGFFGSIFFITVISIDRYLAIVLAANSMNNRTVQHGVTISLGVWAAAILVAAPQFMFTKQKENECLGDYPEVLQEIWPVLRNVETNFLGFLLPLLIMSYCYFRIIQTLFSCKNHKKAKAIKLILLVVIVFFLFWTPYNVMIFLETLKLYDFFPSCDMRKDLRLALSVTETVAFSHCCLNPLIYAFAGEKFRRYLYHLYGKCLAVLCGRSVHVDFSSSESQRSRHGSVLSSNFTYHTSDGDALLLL
Experiment: cell-based or functional assay
outcomeMeasure: % block, fractalkine induced chemotaxis (%)
Reply with just the number (in %).

Ask | What value of % block, fractalkine induced chemotaxis has been recorded for this entry: CX3CR1BII020 (VHH, expressed in E. coli as described for the monovalent VHHs) EVQLVESGGGSVQAGESLRLSCAASGSIFSSNAMAWYRQAPGKQRDLVAGINSVGITKYADSVKGRFTISRDNAKNTAYLQMNSLKPEDTAVYYCTSDPRRGWDTRYWGQGTLVTVSSGGGGSGGGGSGGGGSGGGGSGGGGSGGGGSGGGGSEVQLVESGGGSVQAGESLRLSCAASGSIFSSNAMAWYRQAPGKQRDLVAGINSVGITKYADSVKGRFTISRDNAKNTAYLQMNSLKPEDTAVYYCTSDPRRGWDTRYWGQGTLVTVSS
Reply | 85
